Readings of PBM binding z-score for the listed sequences
Test system: THRa homodimer (NR concentration 90 nM)
Assay: PBM binding z-score (relative to random genomic background probes); higher = stronger binding; sequences stand for … in GC…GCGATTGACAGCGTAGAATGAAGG
Outcome Measure: PBM binding z-score

Residue Codes	Meas Value
GATAAAGGGTCAAGGCCAGAGTACGCGTATTGAT	0.263
CGAACTAGGTCAGATCAGGACAGTGAAGGATGAT	1.25
TCGAGTAGGTTAGGGGCATTCTGAATGGCGTCGA	-0.0336
AGTCAAAGCTCAGGACGAGGTAACGTAAAGCACG	1.21
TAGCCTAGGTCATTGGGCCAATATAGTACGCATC	1.2
CCTAGCAGGCCAGGGTCACTCTAGCATTTCGCTT	0.876
GGAACGAGGGCACGTTGATAGCAGAGTTTGATGG	0.0368
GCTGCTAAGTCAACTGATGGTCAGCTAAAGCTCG	-1.1
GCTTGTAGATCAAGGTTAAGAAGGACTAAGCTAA	-0.165
